assaySummary: Aqueous solubility (pH 7.4)
Assay type: physicochemical
testSettings: aqueous medium at pH 7.4, pH 7.4, aqueous buffer
metricName: solubility (µM)
Value expressed in µM; do not type the unit.

// below: answered compounds
CN1C(=O)c2ccc(-c3cnn(C)c3)cc2NC1(C)C(=O)Nc1cncc(Cl)c1 (stereo not shown)    7
COc1cc(F)c2c(c1)NC(C)(C(=O)Nc1cncc(Cl)c1)N(C)C2=O (stereo not shown)    4
COc1ccc2c(c1)NC(C)(C(=O)Nc1cncc(Cl)c1)N(C)C2=O (stereo not shown)    13.5

Please examine the following record next.
Data request: Look up solubility: CN1C(=O)c2ccc(-n3cccn3)cc2NC1(C)C(=O)Nc1cncc(Cl)c1 (stereo not shown)
Data returned: 2.6

====

# reported pEC50; entries follow
System: P. falciparum Dd2 PfATP4^G358S strain
assaySummary: PfATP4 drug resistant parasite viability assay (LDH), Dd2 G358S
Assay type: cell-based
testSettings: Plasmodium falciparum, DD2, 72 h, read-out: Dd2^G358S EC50 (SD)
The scale used: pEC50 is minus the common logarithm of the concentration in molar units.

CN1C(=O)c2ccc(Cl)cc2NC1(C)C(=O)Nc1cccc(Cl)c1 (stereo not shown) [Compound 11]    7.36
COc1cc(F)c2c(c1)NC(C)(C(=O)Nc1cncc(Cl)c1)N(C)C2=O (stereo not shown) [Compound 36]    7.39
CN1C(=O)c2ccc(-n3cccn3)cc2NC1(C)C(=O)Nc1cncc(Cl)c1 (stereo not shown) [Compound 33]    6.27

Lab note: next molecule to report on.
Data request: # input molecule: CN1C(=O)c2ccc(Cl)cc2NC1(C)C(=O)Nc1cncc(Cl)c1 (stereo not shown) [Compound 14] ; wanted: its pEC50
Data returned: 7.21

====

assaySummary: Human HepG2 cytotoxicity assay (Cell Titre Glo)
Type: cell-based
testSettings: HepG2 cells, growth inhibition at 48 h, 4 replicate experiments, read-out: HepG2 CC50 (SD)
metricName: CC50 at 48 h

CN1C(=O)c2ccc3ncccc3c2NC1(C)C(=O)Nc1cncc(Cl)c1 (stereo not shown) [Compound 26]    > 40 µM

Data request: Tell me the measured CC50 at 48 h of CN1C(=O)c2ccc(-c3ccn(C)n3)cc2NC1(C)C(=O)Nc1cncc(Cl)c1 (stereo not shown) [Compound 31] , please.
Data returned: > 40 µM

====

assaySummary: Rat hepatocyte stability
Format: in vitro ADME
testSettings: rat hepatocytes; read-out: Rat Hep CLint
The reader will find reported log10(hepatocyte CLint) values listed item by item below.
Kindly note that the scale is log10 and the underlying hepatocyte CLint is in µL/min/1e6 cells.

Examples from the recorded data:
CC1(C(=O)Nc2cncc(Cl)c2)Nc2cc(Cl)ccc2C2=NCCN21 (stereo not shown) [Compound 28]    0.94
CN1C(=O)c2ccc(Cl)cc2N(C)C1(C)C(=O)Nc1cccc(Cl)c1 (stereo not shown) [Compound 12]    2.09
CN1c2cc(Cl)ccc2C(=O)N(C2CC2)C1(C)C(=O)Nc1cncc(Cl)c1 (stereo not shown) [Compound 17]    1.67

Data request: Which measured log10(hepatocyte CLint) value corresponds to CN1C(=O)c2ccc(Cl)cc2NC1(C)C(=O)Nc1cncc(Cl)c1 (stereo not shown) [Compound 14] ?
Data returned: 1.40

Data request: Consider the compound CC1(C(=O)Nc2cncc(Cl)c2)Nc2cc(Cl)ccc2-c2nccn21 (stereo not shown) [Compound 27] and give its measured log10(hepatocyte CLint).
Data returned: 1.77

Data request: Tell me the measured log10(hepatocyte CLint) of CC1(C(=O)Nc2cncc(Cl)c2)Nc2cc(Cl)ccc2C(=O)N1C1CC1 (stereo not shown) [Compound 16] , please.
Data returned: 1.52

Data request: Any idea what its log10(hepatocyte CLint) is? The compound is COc1ccc2c(c1)NC(C)(C(=O)Nc1cncc(Cl)c1)N(C)C2=O (stereo not shown) [Compound 34]
Data returned: 1.20

Data request: Fill blank: measured log10(hepatocyte CLint) of the compound CN1C(=O)c2ccc(-c3cnn(C)c3)cc2NC1(C)C(=O)Nc1cncc(Cl)c1 (stereo not shown) [Compound 32] is ____.
Data returned: 0.70

Data request: Which log10(hepatocyte CLint) reading was recorded for the compound COc1cc(F)c2c(c1)NC(C)(C(=O)Nc1cncc(Cl)c1)N(C)C2=O (stereo not shown) [Compound 36] ?
Data returned: 0.90

Data request: Which log10(hepatocyte CLint) is reported for this compound? CN1C(=O)c2ccc(-n3cccn3)cc2NC1(C)C(=O)Nc1cncc(Cl)c1 (stereo not shown) [Compound 33]
Data returned: 1.15
